Assign EC50 to each entry below.
MEASURED_ON: FGFR2IIIb on cells (human, UniProt P21802)
Sequence (P21802 22-377): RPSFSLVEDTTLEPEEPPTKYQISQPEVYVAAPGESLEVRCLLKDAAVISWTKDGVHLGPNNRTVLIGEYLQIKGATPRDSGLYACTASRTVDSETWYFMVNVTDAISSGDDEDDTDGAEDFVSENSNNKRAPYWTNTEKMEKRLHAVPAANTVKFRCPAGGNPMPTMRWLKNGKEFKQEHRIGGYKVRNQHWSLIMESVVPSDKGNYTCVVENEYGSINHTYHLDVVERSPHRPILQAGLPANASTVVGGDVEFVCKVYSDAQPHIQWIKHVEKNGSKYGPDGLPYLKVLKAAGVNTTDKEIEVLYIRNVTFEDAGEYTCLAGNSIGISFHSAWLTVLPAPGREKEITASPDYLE
ASSAY_COMMENT: FACS, SNU-16
Give bare numbers, in mg/L.

Illustrative cases are given below, each with its answer.
>  <BINDER>
III-11 (antibody, V domains shown) VH: QVQLVQSGAEVKKPGSSVKVSCKASGYTFAIYNMHWVRQAPGQGLEWIGAIYPDNGDTFYNQKFKGKATLTADKSTSTAYMELSSLRSEDTAVYYCARGDFGYWGQGTLVTVSS VL: DIVMTQSPSSLSASVGDRVTITCKASQDVNIDPAWYQQKPGKAPKLLIYLASYRYTGVPSRFSGSGSGTDFTFTISSLQPEDFATYYCQQHYSTPYTFGQGTKLEIK

>  <EC50, mg/L>
0.319

$$$$
>  <BINDER>
III-14 (antibody, V domains shown) VH: QVQLVQSGAEVKKPGSSVKVSCKASGYTFAIYNMHWVRQAPGQGLEWIGAIYPGNGDTFYNQKFKGKATLTADKSTSTAYMELSSLRSEDTAVYYCARGDFGYWGQGTLVTVSS VL: DIVMTQSPSSLSASVGDRVTITCKASQDVNIDVAWYQQKPGKAPKLLIYLASYRYTGVPSRFSGSGSGTDFTFTISSLQPEDFATYYCQQTYSTPYTFGQGTKLEIK

>  <EC50, mg/L>
0.526

$$$$
>  <BINDER>
III-0 (antibody, V domains shown) VH: QVQLQQPGAELVRPGASVKMSCKASGYTFANYNMHWVKQTPRQGLEWIGAIYPGNGDTSYNQKFKGKATLTADKSSSTAYMQLSSLTSEDSAVYYCARGDFGYWGQGTTLTVSS VL: DIVMTQSHKFMSTSVGDRVTITCKASQDVNIDVAWYQQKPGQSPKLLIYSASYRYTGVPDRFTGSGSGTDFTFTISSVQAEDLAVYYCQQHYSTPYTFGGGTKLEIK

>  <EC50, mg/L>
0.74

$$$$

Consider now this further binder.
[Q] // Input: III-15 (antibody, V domains shown) VH: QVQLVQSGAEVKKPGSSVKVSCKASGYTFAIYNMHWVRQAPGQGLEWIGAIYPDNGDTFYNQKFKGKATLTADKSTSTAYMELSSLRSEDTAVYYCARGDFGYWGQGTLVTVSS VL: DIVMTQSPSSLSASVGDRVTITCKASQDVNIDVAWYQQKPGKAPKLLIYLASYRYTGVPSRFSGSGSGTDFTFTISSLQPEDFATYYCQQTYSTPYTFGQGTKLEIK . Output its EC50 only.
[A] 0.378
